test system: 276233-004-R-J1-PDC complex spheroid viability; experiment: Anticancer human tumor 276233-004-R-J1-PDC patient-derived colon adenocarcinoma cell line growth inhibition [GQUAD]; conditions: second compound 0.316 µM; first compound 0.0316 µM; active compounds read low
Rule: viability, T/C below 80% gives True. Equal to or above 80% gives False.

The examples below pair each entry with its known result.
[
  {
    "compound": "Cc1cccc(N(C)C(=O)C2C(O)CCN2c2nc(C)cc(C(F)(F)F)c2C#N)c1 (stereo not given) + CN(C)c1ccc(Nc2c3ccc(NC(=O)CCN4CCCC4)cc3nc3cc(NC(=O)CCN4CCCC4)ccc23)cc1",
    "category-label": "True"
  },
  {
    "compound": "CC1COCCN1c1cc(-c2ccnn2C)c2ccnc(-c3ccn[nH]3)c2n1 (stereo not given) + Cc1[nH]c2ccc(F)cc2c1-c1nc2c3cccnc3c3ncccc3c2[nH]1",
    "category-label": "False"
  },
  {
    "compound": "Cn1ncnc1[C@H]1c2n[nH]c(=O)c3cc(F)cc(c23)N[C@@H]1c1ccc(F)cc1 + Cc1[nH]c2ccc(F)cc2c1-c1nc2c3cccnc3c3ncccc3c2[nH]1",
    "category-label": "False"
  }
]

Here is the next item to consider.
Bench note: check whether C=CC(=O)N1CCN(c2nc(=O)n(-c3c(C)ccnc3C(C)C)c3nc(-c4c(O)cccc4F)c(F)cc23)C(C)C1 (stereo not given) + Cc1[nH]c2ccc(F)cc2c1-c1nc2c3cccnc3c3ncccc3c2[nH]1 shows viability, T/C below 80%
True

----------
Please go through the items and note down their viability, T/C.
test system: 276233-004-R-J1-PDC complex spheroid viability; assay: Anticancer human tumor 276233-004-R-J1-PDC cell line growth inhibition [GQUAD]; conditions: second compound 3.16 µM; first compound 0.316 µM; active compounds read low;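 further: spheroids exposed to drugs for seven days; 100% = DMSO vehicle control viability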
One number for each entry, in %.

Worked examples follow.
[
  {
    "compound": "CC1COCCN1c1cc(C2(S(C)(=N)=O)CC2)nc(-c2ccnc3[nH]ccc23)n1 (stereo not drawn) + Cc1cnc(CNC(=O)c2c(=O)c3ccc(N4CCCN(C)CC4)nc3n3c2sc2ccccc23)cn1",
    "quantitative-readout": 75.4
  },
  {
    "compound": "CC(=O)O[C@H]1C(=O)[C@@]2(C)[C@H]([C@H](OC(=O)c3ccccc3)[C@]3(O)C[C@H](OC(=O)[C@H](O)[C@@H](NC(=O)c4ccccc4)c4ccccc4)C(C)=C1C3(C)C)[C@]1(OC(C)=O)CO[C@@H]1C[C@@H]2O + Cc1cnc(CNC(=O)c2c(=O)c3ccc(N4CCCN(C)CC4)nc3n3c2sc2ccccc23)cn1",
    "quantitative-readout": 80.8
  }
]

// moving on: another record for viability, T/C
Fill in viability, T/C for record O=C(c1cc(Cc2n[nH]c(=O)c3ccccc23)ccc1F)N1CCN(C(=O)C2CC2)CC1 + CN(C)c1ccc(Nc2c3ccc(NC(=O)CCN4CCCC4)cc3nc3cc(NC(=O)CCN4CCCC4)ccc23)cc1
52.1

----------
system: 276233-004-R-J1-PDC complex spheroid viability; test: Anticancer human tumor 276233-004-R-J1-PDC cell line growth inhibition [GQUAD]; conditions: second compound 3.16 µM; first compound 3.16 µM; active compounds read low;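 further: spheroids exposed to drugs for seven days; 100% = DMSO vehicle control viability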
Rule: viability, T/C below 30% gives Yes. Equal to or above 30% gives No.

The examples below pair each entry with its known result.
[
  {
    "molecule": "CC(=O)O[C@H]1C(=O)[C@@]2(C)[C@H]([C@H](OC(=O)c3ccccc3)[C@]3(O)C[C@H](OC(=O)[C@H](O)[C@@H](NC(=O)c4ccccc4)c4ccccc4)C(C)=C1C3(C)C)[C@]1(OC(C)=O)CO[C@@H]1C[C@@H]2O + Cc1[nH]c2ccc(F)cc2c1-c1nc2c3cccnc3c3ncccc3c2[nH]1",
    "experimental-target": "276233-004-R-J1-PDC complex spheroid viability",
    "category-label": "Yes"
  },
  {
    "molecule": "CCCS(=O)(=O)Nc1ccc(F)c(C(=O)c2c[nH]c3ncc(-c4ccc(Cl)cc4)cc23)c1F + Cc1[nH]c2ccc(F)cc2c1-c1nc2c3cccnc3c3ncccc3c2[nH]1",
    "experimental-target": "276233-004-R-J1-PDC complex spheroid viability",
    "category-label": "Yes"
  },
  {
    "molecule": "COc1ccc([C@@H](O)c2cc(-c3ncnc4cc(N5CCOCC5)ccc34)c(F)cc2Cl)nn1 + Cc1[nH]c2ccc(F)cc2c1-c1nc2c3cccnc3c3ncccc3c2[nH]1",
    "experimental-target": "276233-004-R-J1-PDC complex spheroid viability",
    "category-label": "No"
  }
]

Bench note: check whether CC1COCCN1c1cc(C2(S(C)(=N)=O)CC2)nc(-c2ccnc3[nH]ccc23)n1 (centres undefined) + Cc1cnc(CNC(=O)c2c(=O)c3ccc(N4CCCN(C)CC4)nc3n3c2sc2ccccc23)cn1 shows viability, T/C below 30%
No

Bench note: check whether CC(=O)O[C@H]1C(=O)[C@@]2(C)[C@H]([C@H](OC(=O)c3ccccc3)[C@]3(O)C[C@H](OC(=O)[C@H](O)[C@@H](NC(=O)c4ccccc4)c4ccccc4)C(C)=C1C3(C)C)[C@]1(OC(C)=O)CO[C@@H]1C[C@@H]2O + Cc1cnc(CNC(=O)c2c(=O)c3ccc(N4CCCN(C)CC4)nc3n3c2sc2ccccc23)cn1 shows viability, T/C below 30%
No

Bench note: check whether CC(C)n1c(=O)n(C)c2cnc3cc(F)c(-c4ccc(OCCCN5CCCCC5)nc4)cc3c21 + Cc1[nH]c2ccc(F)cc2c1-c1nc2c3cccnc3c3ncccc3c2[nH]1 shows viability, T/C below 30%
No

Bench note: check whether C#Cc1c(F)ccc2cc(O)cc(-c3ncc4c(N5CC6CCC(C5)N6)nc(OCC56CCCN5CC(F)C6)nc4c3F)c12 (centres undefined) + Cc1cnc(CNC(=O)c2c(=O)c3ccc(N4CCCN(C)CC4)nc3n3c2sc2ccccc23)cn1 shows viability, T/C below 30%
No

Bench note: check whether CC(C)n1c(=O)n(C)c2cnc3cc(F)c(-c4ccc(OCCCN5CCCCC5)nc4)cc3c21 + Cc1cnc(CNC(=O)c2c(=O)c3ccc(N4CCCN(C)CC4)nc3n3c2sc2ccccc23)cn1 shows viability, T/C below 30%
No

Bench note: check whether Cc1cccc(N(C)C(=O)C2C(O)CCN2c2nc(C)cc(C(F)(F)F)c2C#N)c1 (centres undefined) + CN(C)c1ccc(Nc2c3ccc(NC(=O)CCN4CCCC4)cc3nc3cc(NC(=O)CCN4CCCC4)ccc23)cc1 shows viability, T/C below 30%
No

Data credit: PubChem BioAssay AID2060496
